Reference for the values: ChEMBL document CHEMBL5291721

Target: Equilibrative nucleoside transporter 1 (Homo sapiens); further: assay procedure not described here
Sequence (Q99808 whole entry): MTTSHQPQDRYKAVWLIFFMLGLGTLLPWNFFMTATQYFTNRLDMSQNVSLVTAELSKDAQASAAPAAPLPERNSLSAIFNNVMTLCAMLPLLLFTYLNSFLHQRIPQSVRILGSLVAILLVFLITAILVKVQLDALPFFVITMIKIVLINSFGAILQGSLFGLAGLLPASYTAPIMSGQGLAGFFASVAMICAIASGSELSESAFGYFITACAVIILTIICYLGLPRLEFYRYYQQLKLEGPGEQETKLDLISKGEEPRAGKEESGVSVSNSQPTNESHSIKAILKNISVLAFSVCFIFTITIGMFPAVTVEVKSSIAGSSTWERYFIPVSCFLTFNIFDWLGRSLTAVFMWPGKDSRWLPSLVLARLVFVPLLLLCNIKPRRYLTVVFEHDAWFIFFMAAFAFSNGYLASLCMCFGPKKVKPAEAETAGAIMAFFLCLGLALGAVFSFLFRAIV
metric_name: AC50

Prompt line: Query the reported AC50 for Equilibrative nucleoside transporter 1 (Homo sapiens); item: CCN(CC)CC(=O)Oc1ccc(NC(C)=O)cc1 [PROPACETAMOL]
Response line: > 30 µM

Prompt line: Under Equilibrative nucleoside transporter 1 (Homo sapiens): AC50 value of CC(=N)N1CC[C@H](SC2=C(C(=O)O)N3C(=O)[C@H]([C@@H](C)O)[C@H]3C2)C1 ?
Response line: 60 µM

Prompt line: Tell me reported AC50 for CC(=O)O[C@H]1C[C@@H]2CC[C@@H]3[C@H](CC[C@@]4(C)[C@H]3C[C@H]([N+]3(C)CCCCC3)[C@@H]4OC(C)=O)[C@@]2(C)C[C@@H]1[N+]1(C)CCCCC1 [PANCURONIUM] , tested with Equilibrative nucleoside transporter 1 (Homo sapiens).
Response line: > 10 µM

----------
molecular target: Beta-1 adrenergic receptor (Homo sapiens); type: functional; further: assay procedure not described here
Sequence (P08588 whole entry): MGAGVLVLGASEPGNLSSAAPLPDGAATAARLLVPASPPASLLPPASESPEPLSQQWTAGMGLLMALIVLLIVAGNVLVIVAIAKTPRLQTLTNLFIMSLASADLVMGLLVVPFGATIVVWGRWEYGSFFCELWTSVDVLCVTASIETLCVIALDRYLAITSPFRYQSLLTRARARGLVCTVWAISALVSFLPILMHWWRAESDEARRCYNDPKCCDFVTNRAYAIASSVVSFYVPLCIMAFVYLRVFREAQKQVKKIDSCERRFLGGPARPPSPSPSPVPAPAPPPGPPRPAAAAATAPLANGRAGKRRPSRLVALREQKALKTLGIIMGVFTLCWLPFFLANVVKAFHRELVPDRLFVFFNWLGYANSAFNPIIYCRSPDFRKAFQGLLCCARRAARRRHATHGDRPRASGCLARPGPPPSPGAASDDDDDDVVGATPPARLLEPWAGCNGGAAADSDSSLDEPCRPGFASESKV
metric_name: AC50

Example entries begin here.
{"molecule": "NS(=O)(=O)c1cc2c(cc1C(F)(F)F)NC(Cc1ccccc1)NS2(=O)=O (stereo not drawn) [BENDROFLUMETHIAZIDE]", "AC50": "> 10 µM"}
{"molecule": "CCCCC1(CC)C(=O)NC(=O)NC1=O", "AC50": "> 30 µM"}
{"molecule": "Nc1ccn([C@@H]2O[C@H](CO)[C@@H](O)C2(F)F)c(=O)n1", "AC50": "> 30 µM"}
{"molecule": "CCCCCCOC(=O)CCC(=O)CN [HEXAMINOLEVULINATE]", "AC50": "> 30 µM"}
{"molecule": "C[C@H]1C[C@H]2[C@@H]3CCC4=CC(=O)C=C[C@]4(C)[C@@]3(Cl)[C@@H](O)C[C@]2(C)[C@@]1(O)C(=O)CO", "AC50": "> 10 µM"}
{"molecule": "Clc1cccc(Cl)c1N=C1NCCN1", "AC50": "> 10 µM"}
{"molecule": "Nc1nc(F)nc2c1ncn2[C@@H]1O[C@H](COP(=O)(O)O)[C@@H](O)[C@@H]1O [FLUDARABINE PHOSPHATE]", "AC50": "> 30 µM"}

Prompt line: Look up AC50 for this molecule: CCCC[C@H](C)C[C@H](O)/C=C/[C@H]1[C@H](O)CC(=O)[C@@H]1CCCC/C=C/C(=O)O
Response line: > 30 µM
